# Tested on: NCI-H522 lung
# experimental details: NCI-60 one-dose screen, 48 h
# assay setup: 10 µM unless noted
This is part of a sample that, as a whole, favours compounds with a hit. Of some 83,000 tested, about 20% had one in any assay. Calls of active or inactive are those of the source. Rule for the calls: active = growth percent below 10; inactive = the rest.
Reply using exactly one outcome from active, inactive

**Query** Called result for "CCC(CC)NCCCCCNc1cc(OC)cc2cccnc12"
**Result** inactive

**Query** Now this one: "O=C(Nc1ccccc1Cl)c1cnc2ccc(C3CCNCC3)cn12"
**Result** active

**Query** Now this one: "CCC[C@H](N[C@@H](C)C(=O)N1[C@H](C(=O)O)C[C@@H]2CCCC[C@@H]21)C(=O)OCC"
**Result** inactive

**Query** Now this one: "COc1ccc2nc3cc(Cl)ccc3c(Nc3cc(C(C)C)c(O)cc3C)c2c1"
**Result** active

**Query** Now this one: OC(c1cc(C(F)(F)F)nc2c(C(F)(F)F)cccc12)C1CCCCN1 (stereo not given)
**Result** active

**Query** Now this one: "CNc1ccc(CSc2ccc(Cl)cc2)cc1"
**Result** inactive

**Query** Now this one: "COc1cc(-c2cc(C(=O)Nc3nc4ccccc4s3)nc3cc(-c4ccccc4)nn23)cc(OC)c1OC"
**Result** inactive

**Query** Now this one: "Cn1c(=O)c2c(nc(Br)n2CCC(=O)Nc2ccc(F)cc2)n(C)c1=O"
**Result** inactive

**Query** Now this one: "Cc1ccc(NC(=O)COC(=O)c2ccc(S(=O)(=O)N3CCCCCC3)cc2)cc1"
**Result** inactive

**Query** Now this one: "COc1ccc(-n2nnc(C(=O)O)c2-c2cc(OC)c(OC)c(OC)c2)cc1"
**Result** inactive

---

# System: UO-31 renal
# experimental details: NCI-60 one-dose screen, 48 h (100 = growth as untreated, 0 = no growth, -100 = all killed)
# assay setup: 10 µM unless noted
This is part of a sample that, as a whole, favours compounds with a hit. Of some 83,000 tested, about 20% had one in any assay.
attribute measured: growth (%)
Note: unit % is implicit; provide only the numeric part.

**Query** Please report the recorded growth for "CCC1=C(c2ccc(OC)cc2)C(C)(C)Oc2c1ccc(O)c2CN1CCCC1" .
**Result** 31.3

**Query** Now this one: "c1csc([C@@H]2C[C@@H]3Cc4ccc5ccccc5c4N2O3)c1"
**Result** 70.2

**Query** Now this one: "O=C1C(Cl)=C(N=Nc2c(Cl)c(O)c3ccccc3c2O)C(=O)c2ccccc21"
**Result** 70.4

**Query** Now this one: "CN1CCN(Cc2ccc(NC(=O)c3[nH]ncc3Nc3ccnc4ccnn34)cc2)CC1"
**Result** 71.1

**Query** Now this one: "c1ccc(-c2nn[nH]n2)c(-c2ccc(CN3CCN(c4nsc5ccccc45)CC3)cc2)c1"
**Result** 103

**Query** Now this one: "O=C(Nc1ccc(Oc2ccc(NC(=O)Nc3ccc([N+](=O)[O-])cc3)cc2)cc1)Nc1ccc([N+](=O)[O-])cc1"
**Result** -4.36

**Query** Now this one: "COc1cc(NC(=O)c2cc3ccccc3cc2O)c(OC)cc1Cl"
**Result** -25.8

**Query** Now this one: "O=C1Nc2ccc(F)cc2/C1=C/c1nc(-c2ccc(F)cc2)n2ccccc12"
**Result** 93.4

**Query** Now this one: "COc1c(C)c2c(c(O)c1C/C=C(\C)CCC(=O)OCCN1CCOCC1)C(=O)OC2"
**Result** 15.4

**Query** Now this one: "Cc1nc2cc(NC(=O)CN3CCN(CCN4C(=O)c5cccc6cccc(c56)C4=O)CC3)ccc2s1"
**Result** 53.6

**Query** Now this one: "COc1cccc2c1O/C(=C\c1c([N+](=O)[O-])ncn1C)C2=O"
**Result** 78.7

**Query** Now this one: "O=C(c1nn(-c2ccc(Cl)cc2)cc1O)n1nc(C(F)(F)F)cc1-c1ccccc1"
**Result** 37

**Query** Now this one: "COc1cc(-c2cc(C(=O)Nc3nc4ccccc4s3)nc3cc(-c4ccccc4)nn23)cc(OC)c1OC"
**Result** 87.9

**Query** Now this one: "O=C(/C(=C/c1ccc([N+](=O)[O-])cc1)c1ccccc1)c1ccccc1"
**Result** 43.1

**Query** Now this one: "Cc1nn(-c2ccc(Cl)cc2)c2nc3c(nc12)C(=O)C(=O)c1ccccc1-3"
**Result** 59.8

**Query** Now this one: "COc1ccc(/C=C/C(=O)Nc2cccnc2Nc2ccc(F)cc2)cc1"
**Result** 95.4

**Query** Now this one: "COc1ccc(-c2c(N)noc2-c2cc(OC)c3c(c2)OCCO3)cc1"
**Result** 41

**Query** Now this one: C=C1c2c(C)nn(-c3ccc(C#CCOC4OC(CO)C(O)C(O)C4O)cc3)c2N(C)C23C[C@H]1C1(C)c4c(C)nn(-c5ccc(C#CCOC6OC(CO)C(O)C(O)C6O)cc5)c4N(C)C(C)(C[C@H]12)C3 (some centres undefined)
**Result** 21.1

**Query** Now this one: Nc1c2ccccc2nc2ccccc12 (tested in a mixture with another compound)
**Result** 14.9

**Query** Now this one: OC(c1cc(C(F)(F)F)nc2c(C(F)(F)F)cccc12)C1CCCCN1 (centres undefined)
**Result** 41.8

**Query** Now this one: "COc1cc2c(cc1OCCCCCn1c(-c3ccc(OCc4ccccc4)cc3)nc3cc(N4CCOCC4)ccc31)N=C[C@@H]1CCCN1C2=O"
**Result** 0.0572

**Query** Now this one: O=C1C2C3C=CC(O3)C2C(=O)N1Nc1ccccc1 (centres undefined)
**Result** 101

**Query** Now this one: "O=C(Cn1ccnc1)NC(c1ccccc1)c1ccccc1"
**Result** 89.5

**Query** Now this one: "COc1cc(OC)c2cc(C(=O)O)c(=O)oc2c1"
**Result** 80.7

**Query** Now this one: "N#Cc1c(N)[nH]c(S)c1C#N"
**Result** 88.2

**Query** Now this one: CCC(c1ccccc1)c1noc(CCN(CC)CC)n1 (centres undefined)
**Result** 85.5

**Query** Now this one: COc1cc(C2CC(c3ccc(C)cc3)=NN2C(C)=O)ccc1Oc1ccnc2cc(Cl)ccc12 (centres undefined)
**Result** 61.6

**Query** Now this one: "Cn1c(N)c(N=O)c(=O)[nH]c1=O"
**Result** 82.5

**Query** Now this one: "O=C(/C=C/c1ccccc1Cl)c1ccc(O)cc1"
**Result** 43.6

**Query** Now this one: "Cc1nn(-c2ccccc2)c2nc(Cl)c(/C=C/C(=O)c3ccccc3)c(-c3ccccc3)c12"
**Result** 82.4

**Query** Now this one: "O=C(CSCC(=O)N/N=C/c1ccccc1O)N/N=C\c1ccccc1O"
**Result** 7.47

**Query** Now this one: CCOC(=O)C1=NN(c2ccc(Cl)cc2)C2C3N(c4ccc(Cl)cc4)N=C(C(=O)OCC)N3c3ccccc3N12 (centres undefined)
**Result** 92.6

**Query** Now this one: "COc1cc2c(c(OC)c1OC)CCc1cnoc1-2"
**Result** 94.5

**Query** Now this one: "CN=C(NC)N/N=C(C)\C=N\NC(=NC)NC"
**Result** 83.7

**Query** Now this one: C=CC1=C(C(=O)O)N2C(=O)[C@@H](NC(=O)/C(=N\O)c3csc(N)n3)[C@H]2SC1 (stereo in doubt)
**Result** 91.7

**Query** Now this one: "COc1ccc(-c2cncn2-c2ccc(-c3nc4cc(OC)c(OC)c(OC)c4s3)cc2)cc1N"
**Result** 16.1

**Query** Now this one: CC[N+](C)(CC)CCCC(C)Nc1ccnc2cc(Cl)ccc12 (centres undefined)
**Result** 91.4

**Query** Now this one: COc1cc2c(c(OC)c1OC)-c1ccc(NN(C(=O)c3ccccc3)C(=O)c3ccccc3)c(=O)cc1[C@@H](NC(C)=O)CC2 (tested in a mixture with another compound)
**Result** 62.3

**Query** Now this one: "COc1cc(/C=C/C(=O)c2c(-c3ccc(F)cc3)nc3sc(C)nn23)cc(OC)c1OC"
**Result** 21.5
